- assay.setup: in ethanol, 323.15 K

>  <compound>
CC(=O)NC1CCSC1=O (stereo unspecified)

>  <solubility (mole fraction)>
0.243

$$$$

* * *

- assay.setup: in n-propyl acetate, 278.15 K
metric: solubility (mole fraction)

>  <molecule>
CC(=O)NC1CCSC1=O (stereo unspecified)

>  <observed.value>
0.0131

$$$$

* * *

- assay.setup: in 2-propoxyethanol, 303.15 K

>  <molecule>
CC(=O)NC1CCSC1=O (stereo unspecified)

>  <solubility (mole fraction)>
0.138

$$$$

* * *

- assay.setup: in ethanol, 313.15 K

>  <compound>
CC(=O)NC1CCSC1=O (stereo unspecified)

>  <solubility (mole fraction)>
0.164

$$$$

* * *

- assay.setup: in 2-butoxyethanol, 288.15 K
metric: solubility (mole fraction)

>  <compound>
CC(=O)NC1CCSC1=O (stereo unspecified)

>  <observed.value>
0.0776

$$$$

* * *

- assay.setup: in n-pentanol, 318.15 K
metric: solubility (mole fraction)

>  <molecule>
CC(=O)NC1CCSC1=O (stereo unspecified)

>  <metric>
solubility (mole fraction)

>  <observed.value>
0.114

$$$$

* * *

- assay.setup: in ethyl acetate, 293.15 K

>  <compound>
CC(=O)NC1CCSC1=O (stereo unspecified)

>  <solubility (mole fraction)>
0.0283

$$$$

* * *

- assay.setup: in methanol, 318.15 K

>  <molecule>
CC(=O)NC1CCSC1=O (stereo unspecified)

>  <solubility (mole fraction)>
0.288

$$$$

* * *

- assay.setup: in n-butyl acetate, 318.15 K

>  <molecule>
CC(=O)NC1CCSC1=O (stereo unspecified)

>  <solubility (mole fraction)>
0.0411

$$$$

* * *

- assay.setup: in methyl acetate, 318.15 K
metric: solubility (mole fraction)

>  <molecule>
CC(=O)NC1CCSC1=O (stereo unspecified)

>  <observed.value>
0.0965

$$$$

* * *

- assay.setup: in n-butyl acetate, 323.15 K

>  <compound>
CC(=O)NC1CCSC1=O (stereo unspecified)

>  <solubility (mole fraction)>
0.0496

$$$$

* * *

- assay.setup: in n-butanol, 283.15 K
metric: solubility (mole fraction)

>  <compound>
CC(=O)NC1CCSC1=O (stereo unspecified)

>  <observed.value>
0.0301

$$$$

* * *

- assay.setup: in 2-methoxyethanol, 293.15 K

>  <compound>
CC(=O)NC1CCSC1=O (stereo unspecified)

>  <solubility (mole fraction)>
0.189

$$$$

* * *

- assay.setup: in n-butanol, 278.15 K

>  <compound>
CC(=O)NC1CCSC1=O (stereo unspecified)

>  <solubility (mole fraction)>
0.0244

$$$$

* * *

- assay.setup: in 2-methoxyethanol, 308.15 K

>  <compound>
CC(=O)NC1CCSC1=O (stereo unspecified)

>  <solubility (mole fraction)>
0.255

$$$$

* * *

- assay.setup: in 2-propoxyethanol, 318.15 K

>  <compound>
CC(=O)NC1CCSC1=O (stereo unspecified)

>  <solubility (mole fraction)>
0.203

$$$$

* * *

- assay.setup: in 2-butoxyethanol, 308.15 K

>  <compound>
CC(=O)NC1CCSC1=O (stereo unspecified)

>  <solubility (mole fraction)>
0.132

$$$$

* * *

- assay.setup: in n-butanol, 293.15 K
metric: solubility (mole fraction)

>  <molecule>
CC(=O)NC1CCSC1=O (stereo unspecified)

>  <metric>
solubility (mole fraction)

>  <observed.value>
0.047

$$$$

* * *

- assay.setup: in 2-propoxyethanol, 293.15 K

>  <compound>
CC(=O)NC1CCSC1=O (stereo unspecified)

>  <solubility (mole fraction)>
0.11

$$$$

* * *

- assay.setup: in n-pentanol, 298.15 K

>  <molecule>
CC(=O)NC1CCSC1=O (stereo unspecified)

>  <solubility (mole fraction)>
0.0532

$$$$

* * *

- assay.setup: in n-butyl acetate, 308.15 K
metric: solubility (mole fraction)

>  <compound>
CC(=O)NC1CCSC1=O (stereo unspecified)

>  <observed.value>
0.0307

$$$$

* * *

- assay.setup: in n-propanol, 288.15 K

>  <compound>
CC(=O)NC1CCSC1=O (stereo unspecified)

>  <solubility (mole fraction)>
0.0456

$$$$

* * *

- assay.setup: in methanol, 323.15 K

>  <molecule>
CC(=O)NC1CCSC1=O (stereo unspecified)

>  <solubility (mole fraction)>
0.321

$$$$

* * *

- assay.setup: in 2-butoxyethanol, 318.15 K
metric: solubility (mole fraction)

>  <compound>
CC(=O)NC1CCSC1=O (stereo unspecified)

>  <observed.value>
0.175

$$$$

* * *

- assay.setup: in methanol, 313.15 K
metric: solubility (mole fraction)

>  <molecule>
CC(=O)NC1CCSC1=O (stereo unspecified)

>  <metric>
solubility (mole fraction)

>  <observed.value>
0.253

$$$$

* * *

- assay.setup: in 2-methoxyethanol, 318.15 K
metric: solubility (mole fraction)

>  <compound>
CC(=O)NC1CCSC1=O (stereo unspecified)

>  <observed.value>
0.31

$$$$

* * *

- assay.setup: in ethyl acetate, 298.15 K

>  <compound>
CC(=O)NC1CCSC1=O (stereo unspecified)

>  <solubility (mole fraction)>
0.0325

$$$$

* * *

- assay.setup: in n-propyl acetate, 308.15 K
metric: solubility (mole fraction)

>  <compound>
CC(=O)NC1CCSC1=O (stereo unspecified)

>  <metric>
solubility (mole fraction)

>  <observed.value>
0.0351

$$$$

* * *

- assay.setup: in 2-ethoxyethanol, 323.15 K

>  <molecule>
CC(=O)NC1CCSC1=O (stereo unspecified)

>  <solubility (mole fraction)>
0.278

$$$$

* * *

- assay.setup: in 2-butoxyethanol, 313.15 K

>  <compound>
CC(=O)NC1CCSC1=O (stereo unspecified)

>  <solubility (mole fraction)>
0.15

$$$$

* * *

- assay.setup: in ethyl acetate, 313.15 K
metric: solubility (mole fraction)

>  <compound>
CC(=O)NC1CCSC1=O (stereo unspecified)

>  <metric>
solubility (mole fraction)

>  <observed.value>
0.0546

$$$$

* * *

- assay.setup: in n-pentanol, 323.15 K

>  <molecule>
CC(=O)NC1CCSC1=O (stereo unspecified)

>  <solubility (mole fraction)>
0.14

$$$$

* * *

- assay.setup: in n-butyl acetate, 303.15 K

>  <molecule>
CC(=O)NC1CCSC1=O (stereo unspecified)

>  <solubility (mole fraction)>
0.0263

$$$$

* * *

- assay.setup: in methyl acetate, 303.15 K

>  <compound>
CC(=O)NC1CCSC1=O (stereo unspecified)

>  <solubility (mole fraction)>
0.0559

$$$$

* * *

- assay.setup: in ethanol, 318.15 K

>  <molecule>
CC(=O)NC1CCSC1=O (stereo unspecified)

>  <solubility (mole fraction)>
0.201

$$$$

* * *

- assay.setup: in ethanol, 283.15 K

>  <molecule>
CC(=O)NC1CCSC1=O (stereo unspecified)

>  <solubility (mole fraction)>
0.0439

$$$$

* * *

- assay.setup: in 2-butoxyethanol, 278.15 K
metric: solubility (mole fraction)

>  <compound>
CC(=O)NC1CCSC1=O (stereo unspecified)

>  <observed.value>
0.0606

$$$$

* * *

- assay.setup: in methanol, 283.15 K
metric: solubility (mole fraction)

>  <compound>
CC(=O)NC1CCSC1=O (stereo unspecified)

>  <observed.value>
0.0887

$$$$

* * *

- assay.setup: in ethyl acetate, 278.15 K
metric: solubility (mole fraction)

>  <compound>
CC(=O)NC1CCSC1=O (stereo unspecified)

>  <metric>
solubility (mole fraction)

>  <observed.value>
0.0168

$$$$

* * *

- assay.setup: in 2-butoxyethanol, 303.15 K
metric: solubility (mole fraction)

>  <compound>
CC(=O)NC1CCSC1=O (stereo unspecified)

>  <observed.value>
0.116

$$$$

* * *

- assay.setup: in ethanol, 303.15 K

>  <compound>
CC(=O)NC1CCSC1=O (stereo unspecified)

>  <solubility (mole fraction)>
0.107

$$$$

* * *

- assay.setup: in 2-ethoxyethanol, 283.15 K

>  <molecule>
CC(=O)NC1CCSC1=O (stereo unspecified)

>  <solubility (mole fraction)>
0.108

$$$$

* * *

- assay.setup: in ethanol, 278.15 K

>  <compound>
CC(=O)NC1CCSC1=O (stereo unspecified)

>  <solubility (mole fraction)>
0.0355

$$$$

* * *

- assay.setup: in 2-methoxyethanol, 278.15 K

>  <compound>
CC(=O)NC1CCSC1=O (stereo unspecified)

>  <solubility (mole fraction)>
0.132

$$$$

* * *

- assay.setup: in n-pentanol, 303.15 K

>  <molecule>
CC(=O)NC1CCSC1=O (stereo unspecified)

>  <solubility (mole fraction)>
0.0646

$$$$

* * *

- assay.setup: in 2-propoxyethanol, 278.15 K
metric: solubility (mole fraction)

>  <compound>
CC(=O)NC1CCSC1=O (stereo unspecified)

>  <observed.value>
0.0753

$$$$

* * *

- assay.setup: in n-propyl acetate, 298.15 K
metric: solubility (mole fraction)

>  <compound>
CC(=O)NC1CCSC1=O (stereo unspecified)

>  <observed.value>
0.0257

$$$$

* * *

- assay.setup: in methanol, 278.15 K
metric: solubility (mole fraction)

>  <compound>
CC(=O)NC1CCSC1=O (stereo unspecified)

>  <observed.value>
0.0713

$$$$
